Read-out: Vascular cell adhesion molecule 1 (VCAM1), VCAM1 (gene 7412)
Assay protocol: BSK_hDFCGF_VCAM1: BioMAP Diversity Plus: hDFCGF Assay for Vascular cell adhesion molecule 1 (VCAM1) Biomarker Activity (AID 2283065)
Study conditions: primary human foreskin fibroblasts; actives raise or lower the signal
Activity calls are given as the source filed them. The calls were made as follows: active = hit-call score of the fitted dose curve at least 0.9, where 1 is the maximum; inactive = score below 0.9.
Outcome codes: active, inactive

COC(OC)(C(=O)c1ccccc1)c1ccccc1; inactive
CC(c1cc(C(C)(C)C)cc(C(C)(C)C)c1O)c1cc(C(C)(C)C)cc(C(C)(C)C)c1O; inactive
CC1=CC=C(C(C)C)CC1; inactive
C=CC(=O)OCCCCCCCC(C)C; active
c1ccc2sc(SSN3CCOCC3)nc2c1; inactive
CC=C(C)C(C)=O; active
Cc1ccc([N+](=O)[O-])cc1N; inactive
CCC1(C)C(=O)N(Cl)C(=O)N1Cl (centres undefined); inactive
Nc1cccc(N)n1; inactive

* * *

Read-out: Low-density lipoprotein receptor (LDLR), LDLR (gene 3949)
Assay protocol: BSK_CASM3C_LDLR: BioMAP Diversity Plus: CASM3C Assay for Low-density lipoprotein receptor (LDLR) Biomarker Activity (AID 2283045);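 also: LDLR protein level on the cell surface quantified by ELISA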
Study conditions: primary human coronary artery smooth muscle cells; actives raise or lower the signal
Activity calls are given as the source filed them. The calls were made as follows: active = hit-call score of the fitted dose curve at least 0.9, where 1 is the maximum; inactive = score below 0.9.
Outcomes: y for active, n for inactive

CC=C(C)C=CC=C(C)C; n
CCOC(=O)/C=C\C(=O)OCC; n
CC/C=C\C/C=C\C/C=C\CCCCCCCC(=O)OC; y
CCN1CN(CC)CN(CC)C1; n
O=C1CCCCCCCCCCC1; n
CCCC(C)C(=O)OCC (stereo not drawn); n
Oc1ccc(/C=C/c2cc(O)cc(O)c2)cc1; n
CC/C=C\CCOC(=O)c1ccccc1O; y
CCCCCCOC(=O)CCCCC(=O)OCCCCCC; n
C=CCCCCCCCCC=O; n
CC(c1cc(C(C)(C)C)cc(C(C)(C)C)c1O)c1cc(C(C)(C)C)cc(C(C)(C)C)c1O; n
CCCCCCCCCCCC(=O)N(C)CC(=O)O; n
CCNc1nc(NC(C)(C)C)nc(OC)n1; n
CCCCCCC=O; n
COc1ccc(C(=O)c2ccccc2)c(O)c1; n
CC(C)c1cccc(C(C)C)c1N; n
CCOC(=O)C1=NN(c2ccc(Cl)cc2Cl)C(C)(C(=O)OCC)C1 (stereo not drawn); n
C=CC(=O)OCCCCCCOC(=O)C=C; y
Fc1ccc(Br)cc1; n
c1ccc2c(c1)[nH]c1ccccc12; n
CCOC(=O)C1=NOC(c2ccccc2)(c2ccccc2)C1; n
Oc1c(Cl)cc(Cl)c(Cl)c1Cl; n
CC(C)[N+](C)(CCOC(=O)C1c2ccccc2Oc2ccccc21)C(C)C; n

* * *

Measurement target: Myc proto-oncogene protein (Homo sapiens) (UniProt P01106)
Sequence (P01106 whole entry, looked up): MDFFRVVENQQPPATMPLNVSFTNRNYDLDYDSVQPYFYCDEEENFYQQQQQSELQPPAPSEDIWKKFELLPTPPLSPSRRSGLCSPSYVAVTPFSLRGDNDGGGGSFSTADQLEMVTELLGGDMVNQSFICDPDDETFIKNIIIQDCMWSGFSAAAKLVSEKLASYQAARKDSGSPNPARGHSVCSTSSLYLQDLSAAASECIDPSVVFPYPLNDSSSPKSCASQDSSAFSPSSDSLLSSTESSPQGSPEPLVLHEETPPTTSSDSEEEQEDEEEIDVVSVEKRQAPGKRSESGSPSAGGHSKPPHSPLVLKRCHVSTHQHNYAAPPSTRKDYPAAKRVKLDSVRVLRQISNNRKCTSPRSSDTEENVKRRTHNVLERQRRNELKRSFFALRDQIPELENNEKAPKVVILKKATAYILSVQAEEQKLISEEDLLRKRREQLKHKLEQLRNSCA
Assay protocol: ATG_Myc_CIS: Attagene CIS-FACTORIAL HepG2 Assay for human Myelocytomatosis (Myc) Proto-Oncogene Transcription Factor (AID 2282990)
Study conditions: HepG2, Attagene cis-reporter transcription factor activity; actives raise or lower the signal
Active and inactive are the calls of the source. How the source made its calls: active means hit-call score of the fitted dose curve at least 0.9, where 1 is the maximum; inactive means score below 0.9.
Property label: AC50

CCc1cccc(C)c1N; inactive
C=CC(=O)OCC(C)OCC(C)OCC(C)OC(=O)C=C (stereo not drawn); inactive
CC(=O)c1ccccc1O; inactive
CCCCC(=O)O; inactive
COc1ccc(C(=O)/C(Br)=C\C(=O)O)cc1; inactive
CC(=O)OCc1ccccc1; inactive
O=C(O)C1CCC(C(=O)O)CC1 (stereo not drawn); inactive
Cn1cccc1; inactive
CC(C)CO; inactive
Nc1ccc(C(=O)O)cc1; inactive
C=CC(C)(CCC=C(C)C)OC(=O)C=Cc1ccccc1 (stereo not drawn); inactive
CCCCCCCCCC[N+](C)(CCCCCCCCCC)CCC[Si](OC)(OC)OC; 14.6 µM (active)
c1ccc(-c2nc3ccccc3[nH]2)cc1; 26.1 µM (active)
